- Test system: MS2 coat protein
- PROTOCOL_TEXT: apparent KD of MS2 coat protein; designed switch direction (-1 OFF switch, 1 ON switch): -1; higher = weaker reporter binding
- CONDITIONS_USED: input ligand: none
MEASURE_NAME: apparent KD of MS2 coat protein (nM)

AAAUCUCACGUGAGGAUAUCCUGGGCAACGUCCACGGAGAAGGCACAUGAGGAUCACCCAUGUGUUCGCAAUAC [Brourd's mod of Exclusion 4 (MOD2 of Nando's BmEX4 C.1)] (Eterna round: R97, puzzle: Brourd's mod of Exclusion 4)	17.9
CCGCUAAGAGCAGGAUAUGAGUAACAUGAGGAUCACCCAUGUGGACCAUGAAACAGUCCACGCAGUCAGAAGGGUUACGUGGCA [Eternabot solution 33] (Eterna round: R96, puzzle: Exclusion NG 2)	34.3
